Tgt: MAGL (Mus musculus (Mouse))
Sequence (O35678 whole entry): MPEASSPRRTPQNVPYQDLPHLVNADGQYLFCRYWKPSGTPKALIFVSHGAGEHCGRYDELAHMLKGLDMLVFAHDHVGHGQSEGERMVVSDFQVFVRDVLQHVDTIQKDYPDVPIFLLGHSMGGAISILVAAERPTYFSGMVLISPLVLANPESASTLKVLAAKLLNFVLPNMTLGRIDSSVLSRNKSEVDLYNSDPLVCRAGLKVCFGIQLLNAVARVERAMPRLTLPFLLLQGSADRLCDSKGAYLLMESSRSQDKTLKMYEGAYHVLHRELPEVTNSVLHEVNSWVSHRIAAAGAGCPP
Assay notes: In vitro competitive activity-based protein profiling, MAGL (mouse)
Format: biochemical
Particulars: 1 μM, read-out: MAGL % inh. 1 μM (mouse)
Description: In Vitro Competitive Activity-Based Protein Profiling. Proteomes (mouse brain membrane fraction or cell lysates for mouse assays; human prefrontal cortex or cell membrane fractions for human assays) (50 μL, 1.0 mg/mL total protein concentration) were preincubated with varying concentrations of inhibitors at 37° C. […] Following gel imaging, serine hydrolase activity was determined by measuring fluorescent intensity of gel bands corresponding to MAGL and FAAH using ImageJ 1.43u software.
inhibition at 1 µM values by entry

> print(dat)
                                   molecule   recorded.endpoint  result
1  CS(=O)(=O)Nc1cnn(C(=O)N2CCC3(CCN(Cc4ccc(N5CCCC5)cc4C(F)(F)F)C3)CC2)c1  inhibition at 1 µM   ≥ 75%

q: Form field: inhibition at 1 µM recorded for CC(=O)N(C)c1cnn(C(=O)N2C[C@H]3C[C@H](N(C)Cc4cccc(Cl)c4)C[C@H]3C2)c1 with MAGL (Mus musculus (Mouse)) (enter value)
a: ≥ 75%

q: Form field: inhibition at 1 µM recorded for CC(=O)N(C)c1cnn(C(=O)N2CCC3(CCN(Cc4ccccc4N4CCCC4)C3)C2)c1 (stereo not shown) with MAGL (Mus musculus (Mouse)) (enter value)
a: 0 to 25%

q: Form field: inhibition at 1 µM recorded for COc1cccc(CN2CC3CN(C(=O)n4cc(N(C)C(C)=O)cn4)CC3C2)c1 (stereo not shown) with MAGL (Mus musculus (Mouse)) (enter value)
a: 50 to 75%
